Test description: Pharmacokinetic study in male ICR mice (IP and IV)
Assay type: in vivo, mouse
Condition description: IP, 1 mg/kg, male ICR mouse plasma
Measured parameter: Cmax

Cmax reading for C[C@@H](Oc1cccc(-n2cc3c(n2)CCCC3)c1)C(=O)Nc1nnc(C(F)(F)F)s1 : 5590 ng/mL

----------
Test system: p22phox–Rubicon interaction (Homo sapiens, UniProt P13498)
Construct: The plasmid encoding full-length of the p22phox (V5-p22phox) and Rubicon (Flag-Rubicon) were previously described
Sequence (P13498 whole entry): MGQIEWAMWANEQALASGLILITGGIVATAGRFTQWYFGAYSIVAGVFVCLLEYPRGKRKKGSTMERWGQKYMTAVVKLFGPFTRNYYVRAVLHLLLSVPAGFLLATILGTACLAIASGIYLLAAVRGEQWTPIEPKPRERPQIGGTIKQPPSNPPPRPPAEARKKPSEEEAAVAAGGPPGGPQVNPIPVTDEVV
Test description: p22phox–Rubicon interaction, co-IP in 293T cells co-transfected with V5-p22phox and Flag-Rubicon
Condition description: inhibition of p22phox–Rubicon interaction, compounds 0.01-20 μM for 24 h (Supplemental Fig. 5a)
Measured parameter: IC50 (nM)
Write down the numeric answer in nM and omit the unit.

Value (IC50, p22phox–Rubicon interaction (Homo sapiens, UniProt P13498)) for record C[C@@H](Oc1cccc(-n2cc3c(n2)CCCC3)c1)C(=O)Nc1nnc(C(F)(F)F)s1 = 100

----------
Test description: Pharmacokinetic study in male ICR mice (IP and IV)
Type: in vivo, mouse
Condition description: IV, 0.5 mg/kg, male ICR mouse plasma
Measured parameter: half-life (h)
Lab book: enter the figure in h, no units written.

C[C@@H](Oc1cccc(-n2cc3c(n2)CCCC3)c1)C(=O)Nc1nnc(C(F)(F)F)s1 [TIPTP] yielded half-life of 3.67

----------
Test description: Pharmacokinetic study in male ICR mice (IP and IV)
Format: in vivo, mouse
Condition description: IP, 1 mg/kg, male ICR mouse plasma
Measured parameter: half-life (h)
Report as a plain number; the unit h is understood.

Looking up C[C@@H](Oc1cccc(-n2cc3c(n2)CCCC3)c1)C(=O)Nc1nnc(C(F)(F)F)s1 [TIPTP] , I found its half-life recorded as 2.91

----------
Test description: Pharmacokinetic study in male ICR mice (IP and IV)
Type: in vivo, mouse
Condition description: IP, 1 mg/kg, male ICR mouse plasma
Method: TIPTP at a dose of 0.5 mg/kg and 1 mg/kg was administered intravenously and intraperitoneally to male ICR mice. […] Pharmacokinetic parameters were determined by a noncompartmental analysis using WinNonlin® (Pharsight Corporation, Mountain View, CA) program. The total area under the plasma concentration-time curve from time zero to the last measured time (AUClast) was calculated by the trapezoidal rule-extrapolation method. […] The lower limit of quantitation of the compound in mice plasma was 9.7 ng/mL. […]
Measured parameter: MRT inf (h)
Please reply with the bare figure in h and do not write the unit itself.

Note to self: MRT inf recorded for C[C@@H](Oc1cccc(-n2cc3c(n2)CCCC3)c1)C(=O)Nc1nnc(C(F)(F)F)s1 was 3.42

----------
Test description: Pharmacokinetic study in male ICR mice (IP and IV)
Type: in vivo, mouse
Condition description: IP, 1 mg/kg, male ICR mouse plasma
Measured parameter: Tmax (min)
Please state the figure in min; there is no need to write the unit.

Quick note, Tmax for C[C@@H](Oc1cccc(-n2cc3c(n2)CCCC3)c1)C(=O)Nc1nnc(C(F)(F)F)s1 landed at 13.8

----------
Test description: Pharmacokinetic study in male ICR mice (IP and IV)
Assay type: in vivo, mouse
Condition description: IP, 1 mg/kg, male ICR mouse plasma
Measured parameter: AUC(0-inf)
Provide a numeric answer, followed by its unit.

Per the records, this molecule ( C[C@@H](Oc1cccc(-n2cc3c(n2)CCCC3)c1)C(=O)Nc1nnc(C(F)(F)F)s1 [TIPTP] ) has AUC(0-inf) equal to 15100 ng·h/mL
